Molecular target: recombinant human BACE-1 (rhBACE-1) (Homo sapiens, UniProt P56817)
Construct: expressed as only an extracellular region (amino acid 1-460 residues) of recombinant human β-secretase; His tag (C); purchased R&D systems (Minneapolis, Minn.); host or cells: murine myeloma cell line NS0
Sequence (P56817 46-460 limits assumed): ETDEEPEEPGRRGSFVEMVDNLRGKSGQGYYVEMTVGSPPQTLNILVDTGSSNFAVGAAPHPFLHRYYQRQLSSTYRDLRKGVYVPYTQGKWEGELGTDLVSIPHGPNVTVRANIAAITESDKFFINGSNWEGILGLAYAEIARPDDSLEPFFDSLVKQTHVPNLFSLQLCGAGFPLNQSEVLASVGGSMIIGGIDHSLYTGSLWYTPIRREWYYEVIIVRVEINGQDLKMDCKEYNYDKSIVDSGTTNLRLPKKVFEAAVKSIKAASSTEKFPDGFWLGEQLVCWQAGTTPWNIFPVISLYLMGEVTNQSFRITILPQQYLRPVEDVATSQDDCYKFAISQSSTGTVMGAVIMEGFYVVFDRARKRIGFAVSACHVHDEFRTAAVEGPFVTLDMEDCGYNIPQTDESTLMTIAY
Assay: BACE1 inhibitory activity, rhBACE-1 with fluorogenic peptide substrate, reverse phase HPLC
Assay type: biochemical
Conditions: inhibitor 2 μM; MES buffer pH 5.0, 37° C., 60 minutes; read-out: Inhibitory rate (%) (2 μM)
Description: Experiment Regarding Measurement of BACE1 Inhibitory Activity Enzyme Used in Measurement As an enzyme having β-secretase activity, recombinant human BACE-1 (rhBACE-1) purchased from R&D systems (Minneapolis, Minn.) was used. rhBACE-1 is expressed as only an extracellular region ([…] residues) of recombinant human β-secretase, with a His tag at its carboxyl terminus in murine myeloma cell line, NS0. […]

{"columns": ["COMPOUND", "inhibition at 2 µM"],
 "data": [
  ["COc1ccc([C@@H](C)NC(=O)c2cc(=O)cc(C(=O)N[C@@H](Cc3ccccc3)[C@H](O)C(=O)Nc3cccc(-c4nn[nH]n4)c3)o2)cc1", "70.4%"],
  ["C[C@@H](NC(=O)c1cc(=O)cc(C(=O)N[C@@H](Cc2ccccc2)[C@H](O)C(=O)Nc2cccc(-c3nn[nH]n3)c2)o1)c1ccccc1", "70.1%"],
  ["CS(=O)(=O)Oc1cc(C(=O)NC(Cc2ccccc2)[C@H](O)C(=O)Nc2cccc(-c3nn[nH]n3)c2)nc(C(=O)N2COCC2c2ccccc2)c1 (stereo partly shown)", "95.6%"],
  ["CC(C)(NC(=O)c1cc(=O)cc(C(=O)NC(Cc2ccccc2)[C@H](O)C(=O)Nc2cccc(-c3nn[nH]n3)c2)[nH]1)c1ccccc1 (stereo partly shown)", "65.1%"]
]}

---

Biological target: recombinant human BACE-1 (rhBACE-1) (Homo sapiens)
Construct: expressed as only an extracellular region (amino acid 1-460 residues) of recombinant human β-secretase; His tag (C); purchased R&D systems (Minneapolis, Minn.); host or cells: murine myeloma cell line NS0
Assay: BACE1 inhibitory activity, rhBACE-1 with fluorogenic peptide substrate, reverse phase HPLC
Format: biochemical
Conditions: inhibitor 2 μM; MES buffer pH 5.0, 37° C., 60 minutes; read-out: Inhibitory rate (%) (2 μM)
Entries and their inhibition at 2 µM

{"columns": ["COMPOUND", "inhibition at 2 µM / %"],
 "data": [
  ["C[C@@H](NC(=O)c1cc(=O)cc(C(=O)N[C@@H](Cc2ccccc2)[C@H](O)C(=O)Nc2cccc(-c3nn[nH]n3)c2)o1)c1ccc([N+](=O)[O-])cc1 [Example 3]", 26.8],
  ["C[C@@H](NC(=O)c1cc(=O)cc(C(=O)NC(Cc2ccccc2)[C@H](O)C(=O)Nc2cccc(-c3nn[nH]n3)c2)[nH]1)c1ccccc1 (stereo partly shown) [Example 7]", 50.8],
  ["C[C@@H](NC(=O)c1cc(=O)cc(C(=O)N[C@@H](Cc2ccccc2)[C@H](O)C(=O)Nc2cccc(-c3nn[nH]n3)c2)o1)c1ccc(F)cc1 [Example 22]", 75.8],
  ["CC(C)(NC(=O)c1cccc(C(=O)NC(Cc2ccccc2)[C@H](O)C(=O)Nc2cccc(-c3nn[nH]n3)c2)n1)c1ccccc1 (stereo partly shown) [Example 10]", 69.1],
  ["CC(C)(NC(=O)c1cc(=O)cc(C(=O)N[C@@H](Cc2ccccc2)[C@H](O)C(=O)Nc2cccc(-c3nn[nH]n3)c2)o1)c1ccccc1 [Example 21]", 80.8],
  ["O=C(N[C@@H](Cc1ccccc1)[C@H](O)C(=O)Nc1cccc(-c2nn[nH]n2)c1)c1cc(=O)cc(C(=O)N(Cc2ccccc2)Cc2ccccc2)o1 [Example 2]", 28.8],
  ["O=C(NC(Cc1ccccc1)[C@H](O)C(=O)Nc1cccc(-c2nn[nH]n2)c1)c1cccc(C(=O)N2COCC2c2ccccc2)n1 (stereo partly shown) [Example 15]", 92.6],
  ["CN(Cc1ccccc1)C(=O)c1cc(=O)cc(C(=O)N[C@@H](Cc2ccccc2)[C@H](O)C(=O)Nc2cccc(-c3nn[nH]n3)c2)o1 [Example 6]", 66.9],
  ["O=C(NC(Cc1ccccc1)[C@H](O)C(=O)Nc1cccc(-c2nn[nH]n2)c1)c1cc(=O)cc(C(=O)N2COCC2c2ccccc2)o1 (stereo partly shown) [Example 13]", 95.6],
  ["O=C(NC(Cc1ccccc1)[C@H](O)C(=O)Nc1cccc(-c2nn[nH]n2)c1)c1cc(=O)cc(C(=O)N2COCC2c2ccccc2)[nH]1 (stereo partly shown) [Example 14]", 82.7]
]}
